Across several studies, compounds have been characterized by their Kd on Cyclin-dependent kinase 9 (Homo sapiens, UniProt P50750); a selection follows.

Find Kd for `CCc1cnn2c(N(C)Cc3ccc(OCCOCCOCCOC4CCN(c5ncc(C(=O)N[C@H]6C(C)(C)[C@H](Oc7ccc(C#N)c(Cl)c7)C6(C)C)cn5)CC4)nc3)cc(N3CCCC[C@H]3CCO)nc12` on Cyclin-dependent kinase 9 (Homo sapiens, UniProt P50750) and write it down.
> 2500 nM

Find Kd for `CCN1CCN(c2ccc(Nc3ncnc(N(C)C(=O)Nc4c(Cl)c(OC)c(Cl)c(OC)c4Cl)n3)cc2)CC1` on Cyclin-dependent kinase 9 (Homo sapiens, UniProt P50750) and write it down.
> 10000 nM

Find Kd for `CCc1cnn2c(NCc3ccc(CCOCCOCCN(C)C/C=C/C(=O)N4CCC[C@@H](n5nc(-c6ccc(Oc7ccccc7)cc6)c6c(N)ncnc65)C4)nc3)cc(N3CCCC[C@H]3CCO)nc12` on Cyclin-dependent kinase 9 (Homo sapiens, UniProt P50750) and write it down.
< 50 nM

Find Kd for `CCc1cnn2c(NCc3ccc(OCCCCOCCOC4CCN(c5ncc(C(=O)N[C@H]6C(C)(C)[C@H](Oc7ccc(C#N)c(Cl)c7)C6(C)C)cn5)CC4)nc3)cc(N3CCCC[C@H]3CCO)nc12` on Cyclin-dependent kinase 9 (Homo sapiens, UniProt P50750) and write it down.
500 to 2500 nM

Find Kd for CCc1cnn2c(NCc3ccc(OCCOCCOCCNS(=O)(=O)c4cc(F)cc(N(C(=O)[C@@H]5CCC(=O)N5c5cc(C#N)ccn5)C(C(=O)NC5CC(F)(F)C5)c5ccccc5Cl)c4)nc3)cc(N3CCCC[C@H]3CCO)nc12 (some centres unmarked) on Cyclin-dependent kinase 9 (Homo sapiens, UniProt P50750) and write it down.
500 to 2500 nM
